MEASURED TARGET: Cholinesterase (Equus caballus) (UniProt P81908)
Sequence (P81908 whole entry): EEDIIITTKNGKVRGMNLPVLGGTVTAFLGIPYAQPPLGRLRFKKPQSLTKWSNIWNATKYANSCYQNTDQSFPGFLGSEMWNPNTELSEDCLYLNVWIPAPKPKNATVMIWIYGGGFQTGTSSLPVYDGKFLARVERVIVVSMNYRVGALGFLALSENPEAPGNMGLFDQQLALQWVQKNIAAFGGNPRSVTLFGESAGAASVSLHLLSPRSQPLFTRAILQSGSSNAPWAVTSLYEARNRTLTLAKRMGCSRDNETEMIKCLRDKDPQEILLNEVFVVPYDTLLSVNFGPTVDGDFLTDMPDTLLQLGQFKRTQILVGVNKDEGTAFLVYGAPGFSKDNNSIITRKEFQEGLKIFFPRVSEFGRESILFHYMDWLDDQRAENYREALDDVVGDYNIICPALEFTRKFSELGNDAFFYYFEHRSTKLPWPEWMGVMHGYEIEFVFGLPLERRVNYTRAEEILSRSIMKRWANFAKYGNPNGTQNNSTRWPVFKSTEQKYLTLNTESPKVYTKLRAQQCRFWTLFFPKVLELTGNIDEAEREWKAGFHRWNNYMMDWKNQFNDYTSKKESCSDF
MEASUREMENT NOTES: Inhibition of equine serum BChE at 10 uM using butyrylthiocholine iodide as substrate preincubated for 20 mins followed by substrate addition measured for 5 mins by spectrophotometric Ellman's method relative to control
Below, each of the compounds is paired with its reported inhibition value.
READOUT: inhibition (%)

COMPOUND: Cc1c(C)c2ccc(OC3CCN(Cc4ccc(Cl)cc4)CC3)cc2oc1=O
READOUT: inhibition
UNIT STRING: %
MEASURED VALUE: 29
//
COMPOUND: Cc1c(C)c2ccc(OCC3CCCN(Cc4cccc(Br)c4)C3)cc2oc1=O (single isomer, unassigned; (-))
READOUT: inhibition
UNIT STRING: %
MEASURED VALUE: 26
//
COMPOUND: Cc1c(C)c2ccc(OCC3CCCN(Cc4cccc(Br)c4)C3)cc2oc1=O (single isomer, unassigned; (+))
READOUT: inhibition
UNIT STRING: %
MEASURED VALUE: 36
//
COMPOUND: Cc1c(C)c2ccc(OC3CCN(Cc4cccc(Cl)c4)CC3)cc2oc1=O
READOUT: inhibition
UNIT STRING: %
MEASURED VALUE: 28
//
COMPOUND: Cc1c(C)c2ccc(OCC3CCCN(Cc4cccc(Br)c4)C3)cc2oc1=O (racemic)
READOUT: inhibition
UNIT STRING: %
MEASURED VALUE: 30
//
COMPOUND: Cc1c(C)c2ccc(OCC3CCN(Cc4ccc(Cl)cc4)CC3)cc2oc1=O
READOUT: inhibition
UNIT STRING: %
MEASURED VALUE: 19
